Listed next: entries and their corresponding solubility.
TEST METHOD NOTES: Drug solubility test
Type: physicochemical
PROTOCOL CONDITIONS: read-out: concentration in drug solubility test
Express the result in mg/mL but write the number alone.

**Query** Please give the measured solubility for this compound: CCCC(CCC)C(=O)O [Valproate, valproic acid]
**Result** 20

Switching to the query record.
**Query** Please give the measured solubility for this compound: CC#CCC(CCC)C(=O)O (centres unmarked) [2-propyl-4-hexynoic acid, 2-n-propyl-4-hexynoic acid]
**Result** 18.5
